The measurements presented in this section are drawn from paper PMC11822212.

test system: WAGA cells (VP-MCC); assay: qHTS cell viability (CellTiter-Glo, 72 h; primary and follow-up small molecule screen); assay type: cell-based, human; conditions: WAGA, 72h, Log (M) -7.24494
endpointLabel: Percent viability
A bare number is not enough; add the unit after it.

Some compounds with known Percent viability results, for comparison:
O=C(Nc1cccc(Cl)c1)Nc1ncc(CCNc2ncnc3ccsc23)s1 [SNS-314, reference compound]    24.7%
Cc1cc(Nc2cc(N3CCN(C)CC3)nc(Sc3ccc(NC(=O)C4CC4)cc3)n2)[nH]n1 [Tozasertib, reference compound]    47.8%

Could you tell me Percent viability for each of these compounds? They are listed below.
1. CCS(=O)(=O)c1cccc(-c2cc(C(=O)NC3CCN(C)CC3)c(C)c3[nH]c4ncc(C)cc4c23)c1 [TAK-901, reference compound]
2. CCn1cc(-c2ccnc3[nH]c(-c4cccc(CN(C)C)c4)cc23)c(-c2ccc(NC(=O)N(C)C)cc2)n1 [GSK-1070916A, reference compound]

Given back:
1. 29.7%
2. 26.0%
